target: IGF-1R (Homo sapiens); construct: expressed in transfected cells; test: Example B-2: IGF-1R Assay (PathHunter cell lines, EC80 agonist challenge, chemiluminescent detection); format: cell-based; settings: PathHunter cells, compound 60 minutes at 37° C., EC80 agonist 3 hours; read-out: IC50, Biological Activity against IGF-1R (Table B2)
Recorded endpoint: IC50

Would you please look over these solved cases?
CN1CCC(Nc2cc(CN3C(=O)N(c4ccc(S(=O)(=O)C(F)(F)F)cc4)C(=O)C3(C)C)ccn2)C1=O (stereo not shown) | 2 to 10 µM
CC1(C)COCCC1Nc1cc(CN2C(=O)N(c3ccc(C4(C(F)(F)F)CC4)cc3)C(=O)C2(C)C)ccn1 (stereo not shown) | 0.5 to 2 µM
COC[C@@H](C)Nc1cc(CN2C(=O)N(c3ccc4c(c3)N(C)CC4(C)C)C(=O)C2(C)C)ccn1 | ≤ 0.5 µM

Continue with the compound presented below.
Tell me the measured IC50 of `CC1(C)C(=O)N(c2ccc3c(c2)N(S(C)(=O)=O)CC32CCC2)C(=O)N1Cc1ccnc(NCC23CCC(CC2)OC3)c1` , please.
≤ 0.5 µM

###

In this section, each of the compounds is paired with its reported IC50.
target: IGF-1R (Homo sapiens); construct: expressed in transfected cells; test: Example B-1: IGF-1R Assay (PC3 cells stimulated with IGF1, AlphaLISA on cell lysates); assay type: cell-based; conditions: compound two hours, IGF1 200 ng/mL for 30 min, read-out: IC50, Biological Activity against IGF-1R (Table B1)

Tell me the measured IC50 of CC1(C)C(=O)N(c2ccc(SC(F)(F)F)cc2)C(=O)N1Cc1cc(N)ncn1 [Compound 396] , please.
≤ 500 nM

###

molecular target: IGF-1R (Homo sapiens, UniProt P08069); construct: expressed in transfected cells; experiment: Example B-2: IGF-1R Assay (PathHunter cell lines, EC80 agonist challenge, chemiluminescent detection); format: cell-based; details: PathHunter cells, compound 60 minutes at 37° C., EC80 agonist 3 hours; read-out: IC50, Biological Activity against IGF-1R (Table B2)
Sequence (P08069 31-1367): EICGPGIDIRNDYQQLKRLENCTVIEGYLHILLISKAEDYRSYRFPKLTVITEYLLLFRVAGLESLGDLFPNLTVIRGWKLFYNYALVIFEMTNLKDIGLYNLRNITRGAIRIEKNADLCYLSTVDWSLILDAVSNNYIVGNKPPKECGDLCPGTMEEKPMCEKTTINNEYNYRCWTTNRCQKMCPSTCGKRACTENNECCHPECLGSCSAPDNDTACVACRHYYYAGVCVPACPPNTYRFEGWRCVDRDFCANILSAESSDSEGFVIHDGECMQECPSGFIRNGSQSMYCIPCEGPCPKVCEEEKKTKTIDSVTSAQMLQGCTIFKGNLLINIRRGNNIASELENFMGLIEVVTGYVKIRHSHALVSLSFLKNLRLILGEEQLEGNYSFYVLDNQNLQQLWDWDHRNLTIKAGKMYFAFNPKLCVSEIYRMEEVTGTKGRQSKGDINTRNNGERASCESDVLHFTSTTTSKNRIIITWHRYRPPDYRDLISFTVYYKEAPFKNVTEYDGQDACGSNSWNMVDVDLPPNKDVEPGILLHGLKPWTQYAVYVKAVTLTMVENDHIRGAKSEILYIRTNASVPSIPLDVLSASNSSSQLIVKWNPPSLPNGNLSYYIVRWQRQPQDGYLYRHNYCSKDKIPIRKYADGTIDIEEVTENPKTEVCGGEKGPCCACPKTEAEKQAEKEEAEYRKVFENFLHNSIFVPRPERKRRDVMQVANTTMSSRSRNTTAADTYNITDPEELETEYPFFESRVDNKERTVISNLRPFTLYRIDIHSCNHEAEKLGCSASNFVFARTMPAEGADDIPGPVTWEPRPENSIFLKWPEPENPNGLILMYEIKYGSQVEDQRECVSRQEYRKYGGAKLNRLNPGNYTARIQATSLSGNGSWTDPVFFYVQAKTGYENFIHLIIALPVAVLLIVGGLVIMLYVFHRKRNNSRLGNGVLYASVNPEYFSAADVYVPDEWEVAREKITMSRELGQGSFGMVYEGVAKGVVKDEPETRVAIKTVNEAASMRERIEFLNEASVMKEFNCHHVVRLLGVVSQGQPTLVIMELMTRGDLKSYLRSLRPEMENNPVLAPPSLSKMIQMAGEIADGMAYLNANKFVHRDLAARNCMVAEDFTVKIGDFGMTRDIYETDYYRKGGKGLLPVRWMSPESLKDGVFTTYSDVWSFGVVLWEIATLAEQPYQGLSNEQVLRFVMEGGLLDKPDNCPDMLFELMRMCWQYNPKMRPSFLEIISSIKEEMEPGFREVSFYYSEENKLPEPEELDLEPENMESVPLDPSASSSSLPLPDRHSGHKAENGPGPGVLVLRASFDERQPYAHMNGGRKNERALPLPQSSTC
pIC50: −log10 of the molar value.
Recorded endpoint: pIC50

Cn1nc(C(C)(C)C)c(Br)c1N1C(=O)N(Cc2ccnc3c2CC(=O)N3)C(C)(C)C1=O | 5.00 to 5.70
COCCS(=O)(=O)N1CC(C)(C)c2ccc(N3C(=O)N(Cc4ccnc(NC5CCOCC5)c4)C(C)(C)C3=O)cc21 | ≥ 6.30
CC1(C)C(=O)N(c2ccc(S(=O)(=O)C(F)(F)F)cc2)C(=O)N1Cc1ccnc(N[C@H]2[C@@H]3COC[C@@H]32)c1 | ≥ 6.30

Continue with the compound presented below.
Tell me the measured pIC50 of `CC(C)Nc1cc(CN2C(=O)N(c3ccc4c(c3)NC(=O)C43CC3)C(=O)C2(C)C)ccn1` , please.
5.00 to 5.70

###

target: IGF-1R (Homo sapiens, UniProt P08069); construct: expressed in transfected cells; assay: Example B-1: IGF-1R Assay (PC3 cells stimulated with IGF1, AlphaLISA on cell lysates); assay type: cell-based; conditions: compound two hours, IGF1 200 ng/mL for 30 min, read-out: IC50, Biological Activity against IGF-1R (Table B1)
Recorded endpoint: IC50

Would you please look over these solved cases?
COC[C@H](C)Nc1cc(CN2C(=O)N(c3ccc(C4(C(F)(F)F)CC4)cc3)C(=O)C2(C)C)ccn1 [Compound 105] | ≤ 500 nM
CC(C)Nc1cc(CN2C(=O)N(c3ccc(C4(C(F)(F)F)CC4)cc3)C(=O)C2(C)C)ccn1 [Compound 84] | ≤ 500 nM
CC1(C)C(=O)N(c2ccc(SC(F)(F)F)cc2)C(=O)N1Cc1ccnc(N)c1P(C)(C)=O [Compound 389] | 500 to 2000 nM

Tell me the measured IC50 of CC1(C)C(=O)N(c2ccc(SC(F)(F)F)cc2)C(=O)N1Cc1ccnc(NCC2CC2)c1 [Compound 311] , please.
≤ 500 nM

// repeat for CC1CC(Nc2cc(CN3C(=O)N(c4ccc(C5(C(F)(F)F)CC5)cc4)C(=O)C3(C)C)ccn2)CCO1 (stereo not drawn) [Compound 127] and report
≤ 500 nM

// repeat for C[C@@H]1COc2c(CN3C(=O)N(c4ccc(C5(C(F)(F)F)CC5)cc4)C(=O)C3(C)C)ccnc2N1 [Compound 25] and report
≤ 500 nM

// repeat for CC1(C)C(=O)N(c2ccc(C3(C(F)(F)F)CC3)cc2)C(=O)N1Cc1ccnc(NC2CCOCC2)c1 [Compound 106] and report
≤ 500 nM

###

biological target: IGF-1R (Homo sapiens); construct: expressed in transfected cells; assay: Example B-1: IGF-1R Assay (PC3 cells stimulated with IGF1, AlphaLISA on cell lysates); assay type: cell-based; settings: compound two hours, IGF1 200 ng/mL for 30 min, read-out: IC50, Biological Activity against IGF-1R (Table B1)
pIC50: −log10 of the molar value.
Recorded endpoint: pIC50

Would you please look over these solved cases?
CC(C)Nc1nccc(CN2C(=O)N(c3ccc(SC(F)(F)F)cc3)C(=O)C2(C)C)c1Br | 5.00 to 5.70
CC1(C)C(=O)N(c2ccc(C3(C(F)(F)F)CC3)cc2)C(=O)N1Cc1ccnc(NC2CC3(COC3)C2)c1 | ≥ 6.30
CCC(C)Nc1cc(CN2C(=O)N(c3ccc(SC(F)(F)F)cc3)C(=O)C2(C)C)ccn1 (stereo not shown) | ≥ 6.30
CC1(c2ccc(N3C(=O)N(Cc4ccnc(N)c4)C(C)(C)C3=O)cc2)COC1 | 5.70 to 6.30
CC(C)Nc1cc(CN2C(=O)N(c3ccc(S(F)(F)(F)(F)F)cc3)C(=O)C2(C)C)ccn1 | ≥ 6.30

Tell me the measured pIC50 of `CC1(C)C(=O)N(c2ccc(C3(C(F)(F)F)CC3)cc2)C(=O)N1Cc1ccnc(NC2CCS(=O)(=O)CC2)c1` , please.
5.70 to 6.30

// repeat for `CC1(C)C(=O)N(c2ccc(SC(F)(F)F)cc2)C(=O)N1Cc1ccnc(N)c1C#N` and report
≥ 6.30

###

Target: IGF-1R (Homo sapiens, UniProt P08069)
Construct: expressed in transfected cells
Assay: Example B-1: IGF-1R Assay (PC3 cells stimulated with IGF1, AlphaLISA on cell lysates)
Type: cell-based
Conditions: compound two hours, IGF1 200 ng/mL for 30 min, read-out: IC50, Biological Activity against IGF-1R (Table B1)
Description: 50K PC3 cells were seeded on day 1 in 50 μL of media in 96-well plate and incubated overnight at 37° C., 5% CO2. On day 2, all cells were expected to be at 80-90% confluency. […] The media was removed and replaced by 50 μL of 1× lysis buffer from the AlphaLISA kit (with 1× of cOmplete™ protease inhibitor). […] The plates were read in EnVision reader using standard AlphaLISA settings. Compound activity was analyzed using CBIS data analysis suite (Cheminnovation, CA). […]
Recorded endpoint: IC50

Would you please look over these solved cases?
CCc1cn(C)c2cc(N3C(=O)N(Cc4ccnc(NC(C)C)c4)C(C)(C)C3=O)ccc12 [Compound 257] | 500 to 2000 nM
Cc1cccc(NC(=O)Nc2cc(CN3C(=O)N(c4ccc(SC(F)(F)F)cc4)C(=O)C3(C)C)ccn2)c1 [Compound 372] | ≤ 500 nM
CC1(C)C(=O)N(c2ccc(S(F)(F)(F)(F)F)cc2)C(=O)N1Cc1ccnc(N)c1 [Compound 179] | ≤ 500 nM

Tell me the measured IC50 of COc1cccc(NC(=O)Nc2cc(CN3C(=O)N(c4ccc(SC(F)(F)F)cc4)C(=O)C3(C)C)ccn2)c1 [Compound 364] , please.
≤ 500 nM

// repeat for CC(C)Nc1cc(CN2C(=O)N(c3ccc([C@H]4C[C@@H]4F)cc3)C(=O)C2(C)C)ccn1 [Compound 96] and report
500 to 2000 nM

// repeat for CC1(C)C(=O)N(c2ccc(CC(F)(F)F)cc2)C(=O)N1Cc1ccnc(N)c1 [Compound 94] and report
≤ 500 nM

// repeat for CN1CCC(NC(=O)Nc2cc(CN3C(=O)N(c4ccc(SC(F)(F)F)cc4)C(=O)C3(C)C)ccn2)CC1 [Compound 309] and report
≤ 500 nM

###

biological target: IGF-1R (Homo sapiens, UniProt P08069); construct: expressed in transfected cells; assay: Example B-2: IGF-1R Assay (PathHunter cell lines, EC80 agonist challenge, chemiluminescent detection); assay type: cell-based; conditions: PathHunter cells, compound 60 minutes at 37° C., EC80 agonist 3 hours; read-out: IC50, Biological Activity against IGF-1R (Table B2)
pIC50: −log10 of the molar value.
Recorded endpoint: pIC50

Would you please look over these solved cases?
CO[C@H](C)CNc1cc(CN2C(=O)N(c3ccc4c(c3)N(S(C)(=O)=O)CC43CCC3)C(=O)C2(C)C)ccn1 [Compound 239] | ≥ 6.30
[2H]C([2H])([2H])Nc1cc(CN2C(=O)N(c3ccc(S(=O)(=O)C(F)(F)F)cc3)C(=O)C2(C)C)ccn1 [Compound 408] | ≥ 6.30
CC(C)c1ccc(N2C(=O)N(Cc3ccnc(N[C@H]4[C@@H]5COC[C@@H]54)c3)C(C)(C)C2=O)cc1C#N [Compound 279] | ≥ 6.30
CC1(C)C(=O)N(c2ccc3c(c2)N(S(C)(=O)=O)CC32CCC2)C(=O)N1Cc1ccnc2c1CC(=O)N2 [Compound 43] | ≥ 6.30
CN1CCC(Nc2cc(CN3C(=O)N(c4ccc(S(=O)(=O)C(F)(F)F)cc4)C(=O)C3(C)C)ccn2)CC1=O (centres unmarked) [Compound 326] | 5.00 to 5.70
CC1CCc2c(CN3C(=O)N(c4ccc(C5(C(F)(F)F)CC5)cc4)C(=O)C3(C)C)ccnc2N1 (centres unmarked) [Compound 55] | ≥ 6.30
CC1(C)CN(C(N)=O)c2cc(N3C(=O)N(Cc4ccnc(N[C@H]5[C@@H]6COC[C@@H]65)c4)C(C)(C)C3=O)ccc21 [Compound 253] | ≥ 6.30
CC1(C)C(=O)N(c2ccc(C3(C(F)(F)F)CC3)cc2)C(=O)N1Cc1ccnc2c1C(F)(F)C(=O)N2 [Compound 24] | ≥ 6.30
CC1(C)C(=O)N(c2ccc(C3(C(F)(F)F)CC3)cc2)C(=O)N1Cc1ccnc(NS(C)(=O)=O)c1 [Compound 166] | 5.70 to 6.30
CC(C)(C#N)c1ccc(N2C(=O)N(Cc3ccnc4c3CC(=O)N4)C(C)(C)C2=O)cc1 [Compound 29] | ≥ 6.30

Tell me the measured pIC50 of CC1(C)C(=O)N(c2ccc(C34CC(C3)C4)cc2)C(=O)N1Cc1ccnc2c1CC(=O)N2 [Compound 32] , please.
≥ 6.30

// repeat for CC1(C)C(=O)N(c2ccc3c(c2)N(S(C)(=O)=O)CC32CC2)C(=O)N1Cc1ccnc2c1CC(=O)N2 [Compound 45] and report
≥ 6.30

// repeat for CC1(C)C(=O)N(c2ccc3c(c2)N(S(C)(=O)=O)CC32CCC2)C(=O)N1Cc1ccnc(N[C@H]2CCOC2)c1 [Compound 204] and report
≥ 6.30

// repeat for CC1(C)C(=O)N(c2ccc(OC(F)(F)F)c(F)c2)C(=O)N1Cc1ccnc2c1CC(=O)N2 [Compound 286] and report
5.00 to 5.70
